Measured efflux ratio at 90 min, 10 μM values are reported for all entries that follow.
Measurement Description: in vitro
Condition Info: human, Caco-2, pH 7.4
Where a name gives a salt, the structure may show the parent alone.

COCCc1ccc(OCC(O)CNC(C)C)cc1 (centres unmarked) [Metoprolol Tartrate]
0.93

query: Which efflux ratio at 90 min, 10 μM value is on record for CC[C@H]1OC(=O)[C@H](C)[C@@H](O[C@H]2C[C@@](C)(OC)[C@@H](O)[C@H](C)O2)[C@H](C)[C@@H](O[C@@H]2O[C@H](C)C[C@H](N(C)C)[C@H]2O)[C@](C)(O)C[C@@H](C)C(=O)[C@H](C)[C@@H](O)[C@]1(C)O ?
result: 30.6

====

Measured melting point values are reported for all entries that follow.

C/C=C/C(=O)N1CCN(c2nc(=O)n(-c3c(C)ccnc3C(C)C)c3nc(-c4cc5ccoc5cc4F)c(F)cc23)[C@@H](C)C1
155 to 157 °C
C=CC(=O)N1CCN(c2nc(=O)n(-c3c(C)ccnc3C(C)C)c3nc(-c4c(F)c(O)cc5ccoc45)c(Cl)cc23)[C@@H](C)C1
92 to 104 °C
C=CC(=O)N1C[C@H](C)N(c2nc(=O)n(-c3c(C)ccnc3C(C)C)c3nc(-c4c(F)c(F)cc5ccoc45)c(Cl)cc23)C[C@H]1C (atropisomer, axis not shown; (P))
153 to 162 °C
C=CC(=O)N1C[C@H](C)N(c2nc(=O)n(-c3c(C)ccnc3C(C)C)c3nc(-c4c(F)ccc5ccoc45)c(F)cc23)C[C@H]1C (single isomer, unassigned) [Compound 89-1]
275 to 277 °C
C=CC(=O)N1CCN(c2nc(=O)n(-c3c(C(C)C)ccnc3C(C)C)c3nc(-c4c(F)ccc5ccoc45)c(Cl)cc23)[C@@H](C)C1
162 to 173 °C
C=CC(=O)N1CCN(c2nc(=O)n(-c3c(C)ccnc3C(C)C)c3nc(-c4c(OC)ccc5ccoc45)c(F)cc23)[C@@H](C)C1
156 to 158 °C
C=CC(=O)N1CCN(c2nc(=O)n(-c3c(C)ncnc3C(C)C)c3nc(-c4c(F)ccc5ccoc45)c(F)cc23)[C@@H](C)C1
143 to 146 °C
C=CC(=O)N1C[C@H](C)N(c2nc(=O)n(-c3c(C)ccnc3C(C)C)c3nc(-c4c(F)ccc5ccoc45)c(Cl)cc23)C[C@H]1C [Compound 90]
167 to 169 °C

Shifting focus to the molecule that follows.
query: Which melting point value is on record for C=CC(=O)N1C[C@H](C)N(c2nc(=O)n(-c3c(C)ccnc3C(C)C)c3nc(-c4c(F)ccc5ccoc45)c(Cl)cc23)C[C@H]1C (single isomer, unassigned) [Compound 90-1] ?
result: 175 to 177 °C

====

Measured pIC50 values are reported for all entries that follow.
Test system: H358 (KRAS G12C)
Measurement Description: Tumor cell proliferation inhibition assay (CellTiter-Glo), H358
Assay type: cell-based, Human
Condition Info: Homo sapiens, NCI-H358, 72 h, 10% fetal bovine serum
pIC50: −log10 of the molar value.

Record excerpt, results attached:
C=CC(=O)N1CCN(c2nc(=O)n(-c3c(C)ccnc3C(C)C)c3nc(-c4c(F)ccc5c4OCO5)c(Cl)cc23)[C@@H](C)C1
> 8.00
C=CC(=O)N1CCN(c2nc(=O)n(-c3c(C)ccnc3C(C)C)c3nc(-c4c(F)ccc5c4OCCO5)c(F)cc23)[C@@H](C)C1
7.30 to 8.00
C=CC(=O)N1CCN(c2nc(=O)n(-c3c(C)ccnc3C(C)C)c3nc(-c4c(Cl)ccc5ccoc45)c(F)cc23)[C@@H](C)C1
7.30 to 8.00
C=CC(=O)N1C[C@H](C)N(c2nc(=O)n(-c3c(C)ccnc3C(C)C)c3nc(-c4c(F)c(F)cc5ccoc45)c(Cl)cc23)C[C@H]1C (single isomer, unassigned)
> 8.00
C=CC(=O)N1CCN(c2nc(=O)n(-c3c(C)ncnc3C(C)C)c3nc(-c4c(F)ccc5ccoc45)c(F)cc23)[C@@H](C)C1
7.00 to 7.30
C=CC(=O)N1C[C@H](C)N(c2nc(=O)n(-c3c(C)ccnc3C(C)C)c3nc(-c4c(F)c(F)cc5ccoc45)c(F)cc23)C[C@H]1C (single isomer, unassigned)
7.30 to 8.00
C=CC(=O)N1CCN(c2nc(=O)n(-c3c(C)ccnc3C(C)C)c3nc(-c4c(F)ccc5ccoc45)c(Cl)cc23)[C@@H](C)C1 (single isomer, unassigned) [Compound 73-1]
> 8.00
C=CC(=O)N1CCN(c2nc(=O)n(-c3c(C)ccnc3C(C)C)c3nc(-c4c(F)ccc5ccsc45)c(F)cc23)[C@@H](C)C1
7.30 to 8.00
C=CC(=O)N1CCN(c2nc(=O)n(-c3c(C)ccnc3C(C)C)c3nc(-c4cccc5cc[nH]c45)c(F)cc23)[C@@H](C)C1
9.00
C=CC(=O)N1CCN(c2nc(=O)n(-c3c(C(C)C)ccnc3C(C)C)c3nc(-c4c(F)ccc5ccoc45)c(F)cc23)[C@@H](C)C1
7.30 to 8.00

query: Give recorded pIC50 with H358 (KRAS G12C) for the following molecule: C=CC(=O)N1CCN(c2nc(=O)n(-c3c(C)ccnc3C(C)C)c3nc(-c4c(F)c(F)cc5ccoc45)c(F)cc23)[C@@H](C)C1 (single isomer, unassigned)
result: 7.30 to 8.00

query: Give recorded pIC50 with H358 (KRAS G12C) for the following molecule: C=CC(=O)N1CCN(c2nc(=O)n(-c3c(CO)cccc3C(C)C)c3nc(-c4c(F)ccc5ccoc45)c(F)cc23)[C@@H](C)C1
result: 7.00 to 7.30

query: Give recorded pIC50 with H358 (KRAS G12C) for the following molecule: C=CC(=O)N1C[C@H](C)N(c2nc(=O)n(-c3c(C)ccnc3C(C)C)c3nc(-c4c(F)ccc5ccoc45)c(F)cc23)C[C@H]1C (single isomer, unassigned) [Compound 89-1]
result: 7.30 to 8.00

query: Give recorded pIC50 with H358 (KRAS G12C) for the following molecule: C=CC(=O)N1C[C@H](C)N(c2nc(=O)n(-c3c(C)ccnc3C(C)C)c3nc(-c4c(F)ccc5ccoc45)c(F)cc23)C[C@H]1C [Compound 89]
result: 7.30 to 8.00

query: Give recorded pIC50 with H358 (KRAS G12C) for the following molecule: C=CC(=O)N1CCN(c2nc(=O)n(-c3c(C)ccnc3C(C)C)c3nc(-c4c(F)cc(F)c5ccoc45)c(Cl)cc23)[C@@H](C)C1
result: > 8.00

query: Give recorded pIC50 with H358 (KRAS G12C) for the following molecule: C=CC(=O)N1CCN(c2nc(=O)n(-c3c(C)ccnc3C(C)C)c3nc(-c4c(F)ccc5ccoc45)c(F)cc23)[C@@H](C)C1
result: 7.30 to 8.00

query: Give recorded pIC50 with H358 (KRAS G12C) for the following molecule: C=CC(=O)N1CCN(c2nc(=O)n(-c3c(C)ccnc3C(C)C)c3nc(-c4c(F)ccc5c4OCCO5)c(Cl)cc23)[C@@H](C)C1
result: > 8.00

query: Give recorded pIC50 with H358 (KRAS G12C) for the following molecule: C=CC(=O)N1CCN(c2nc(=O)n(-c3c(C)ccnc3C(C)C)c3nc(-c4c(F)ccc5ccoc45)c(Cl)cc23)[C@@H](CC)C1
result: 7.00 to 7.30

query: Give recorded pIC50 with H358 (KRAS G12C) for the following molecule: C=CC(=O)N1CCN(c2nc(=O)n(-c3c(C)ccnc3C(C)C)c3nc(-c4cccc5ccoc45)c(F)cc23)[C@@H](C)C1
result: 6.30 to 7.00

query: Give recorded pIC50 with H358 (KRAS G12C) for the following molecule: C=CC(=O)N1CCN(c2nc(=O)n(-c3c(C#N)cccc3C(C)C)c3nc(-c4c(F)ccc5ccoc45)c(Cl)cc23)[C@@H](C)C1
result: > 8.00

query: Give recorded pIC50 with H358 (KRAS G12C) for the following molecule: C=CC(=O)N1C[C@H](C)N(c2nc(=O)n(-c3c(C)ccnc3C(C)C)c3nc(-c4c(F)ccc5ccoc45)c(Cl)cc23)C[C@H]1C (single isomer, unassigned)
result: > 8.00

query: Give recorded pIC50 with H358 (KRAS G12C) for the following molecule: C=CC(=O)N1CCN(c2nc(=O)n(-c3c(C)ccnc3C(C)C)c3nc(-c4c(Cl)ccc5ccoc45)c(Cl)cc23)[C@@H](C)C1
result: > 8.00

query: Give recorded pIC50 with H358 (KRAS G12C) for the following molecule: C=CC(=O)N1CCN(c2nc(=O)n(-c3c(C)ccnc3C(C)C)c3nc(-c4c(F)c(OC)cc5ccoc45)c(Cl)cc23)[C@@H](C)C1
result: 7.00 to 7.30

====

Measurement Description: in vitro
Condition Info: human, Caco-2, pH 7.4, Papp B-A mean value
Where a name gives a salt, the structure may show the parent alone.
Measured Papp B→A at 90 min, 10 μM values are reported for all entries that follow.
Report only the number, with the unit ×10⁻⁶ cm/s understood.

COCCc1ccc(OCC(O)CNC(C)C)cc1 (centres unmarked) [Metoprolol Tartrate]
32.4

query: Which Papp B→A at 90 min, 10 μM value is on record for CC[C@H]1OC(=O)[C@H](C)[C@@H](O[C@H]2C[C@@](C)(OC)[C@@H](O)[C@H](C)O2)[C@H](C)[C@@H](O[C@@H]2O[C@H](C)C[C@H](N(C)C)[C@H]2O)[C@](C)(O)C[C@@H](C)C(=O)[C@H](C)[C@@H](O)[C@]1(C)O ?
result: 14.7
